tested on: RBM10 RRM1-ZnF (GST-tagged construct); test: RNAcompete 7-mer binding Z-score; higher = stronger binding preference;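 also: 20 pmol protein with 1.5 nmol RNA pool for 30 min at 4°C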
In all, about 16,000 sequences were measured (“Z-score”: median about -0.37, highest 2% from about 3.2 on). Only a selection was taken, and the highest values are over-represented in it overall.
Kindly return Condition met if reported RNAcompete 7-mer binding Z-score is no lower than 1; return Condition not met if it is lower.

Consider the following illustrative entries.
GAAUGCU :: Condition not met
AAAGUCC :: Condition not met
GAUGGAG :: Condition met
AAGGGGA :: Condition met
GUGGGGU :: Condition met
AACGGGA :: Condition met
AGGGGGU :: Condition met
GGUGGCA :: Condition met
ACGCUCU :: Condition not met
ACUUAUG :: Condition not met

# input Form field: RNAcompete 7-mer binding Z-score at least 1? Entry: `AACGGGU`
# output Condition met

# input Also check `GUGGGCG`
# output Condition met

# input Also check `CUGGGUA`
# output Condition met

# input Also check `CCGGGUG`
# output Condition met

# input Also check `AUAUCCU`
# output Condition not met

# input Also check `AGUGGGA`
# output Condition met

# input Also check `AAUGGAG`
# output Condition met

# input Also check `GGUGGAA`
# output Condition met

# input Also check `GGUGGAU`
# output Condition met

# input Also check `AGAUAGU`
# output Condition not met

# input Also check `AACAACC`
# output Condition not met

# input Also check `CGCGCCA`
# output Condition not met

# input Also check `UGCCUCC`
# output Condition not met

# input Also check `GAUGGAA`
# output Condition met
